Cited source: patent US20040018941A1

- Tested on: large crabgrass (Digitaria sanguinalis, DIGSA)
- method summary: Post-emerge herbicidal activity, greenhouse screen, DIGSA
- Format: in vivo
- assay context: 250 g ai/ha, rating 0-100 (0 no damage, 100 complete death), 14 days after application
measurement type: Post-emerge Herbicidal Activity DIGSA
Respond numerically, and do not add a unit to the figure.

Worked cases, answers included:
> print(dat)
                                   molecule                       measurement.type  meas.value
1  Cn1c(C(F)(F)F)cc(=O)n(-c2ccc(Cl)c3nc(C(C)(C)C)oc23)c1=S [Compound 1-4]  Post-emerge Herbicidal Activity DIGSA          20
2  Cn1c(C(F)(F)F)cc(=O)n(-c2c(F)ccc3nc(C(C)(C)C)oc23)c1=S [Compound 1-5]  Post-emerge Herbicidal Activity DIGSA          75
3  Cn1c(C(F)(F)F)cc(=O)n(-c2c(F)cc(Cl)c3ncoc23)c1=S [Compound 1-1]  Post-emerge Herbicidal Activity DIGSA          99

What Post-emerge Herbicidal Activity DIGSA value was documented for this molecule, Cc1cc2c(-n3c(=O)cc(C(F)(F)F)n(C)c3=S)c(F)cc(Cl)c2o1 [Compound 2-2] ?
100

Same question for Cc1nc2c(Cl)cc(F)c(-n3c(=O)cc(C(F)(F)F)n(C)c3=S)c2o1 [Compound 1-2] please.
100

Same question for Cn1c(C(F)(F)F)cc(=O)n(-c2c(F)cc(Cl)c3nc(C(C)(C)C)oc23)c1=S [Compound 1-3] please.
65

====

Pre-emerge Herbicidal Activity SORHA overview
- Tested on: johnsongrass (Sorghum halepense, SORHA)
- method summary: Pre-emerge herbicidal activity, greenhouse screen, SORHA
- Type: in vivo
- assay context: 63 g ai/ha, rating 0-100 (0 no damage, 100 complete death), 14 days after application
- Experimental: A standard greenhouse herbicide activity screening system was used to evaluate the herbicidal efficacy and crop safety of these test compounds. […] At 14 days after application of the test materials, phytotoxicity ratings were recorded. […]
Respond numerically, and do not add a unit to the figure.

> print(dat)
                           structure.smiles                      measurement.type  meas.value
1  Cc1nc2c(Cl)cc(F)c(-n3c(=O)cc(C(F)(F)F)n(C)c3=S)c2o1  Pre-emerge Herbicidal Activity SORHA         100
2  Cn1c(C(F)(F)F)cc(=O)n(-c2c(F)ccc3nc(C(C)(C)C)oc23)c1=S  Pre-emerge Herbicidal Activity SORHA          99
3  Cn1c(C(F)(F)F)cc(=O)n(-c2ccc(Cl)c3nc(C(C)(C)C)oc23)c1=S  Pre-emerge Herbicidal Activity SORHA         100
4  Cc1cc2c(-n3c(=O)cc(C(F)(F)F)n(C)c3=S)c(F)cc(Cl)c2o1  Pre-emerge Herbicidal Activity SORHA         100
5  Cn1c(C(F)(F)F)cc(=O)n(-c2c(F)cc(Cl)c3nc(C(C)(C)C)oc23)c1=S  Pre-emerge Herbicidal Activity SORHA         100

What Pre-emerge Herbicidal Activity SORHA value was documented for this compound, `Cn1c(C(F)(F)F)cc(=O)n(-c2c(F)cc(Cl)c3ncoc23)c1=S` ?
100
